# System: MKL-2
# Assay Notes: qHTS assay to identify novel small-molecules to repurpose for Merkel cell carcinoma treatment (AID 1296009); also: nearly all actives have a fitted effect of over 60% in size
# Condition Description: MCC and control cell lines, CellTiter-Glo viability, 72 h; series mostly up to 46 µM
Records with an inconclusive call do not appear. The source made the active and inactive calls. Calls follow the shape of the dose curve; as a rule, active = well fitted inhibition curve with a large enough effect; inconclusive = small, poorly fitted or top-dose-only effect; inactive = flat fitted curve, though single readings scatter.
Entry note: the call must match one of t = active, f = inactive

Here are 10 compounds together with their reported answers.
{"Compound": "CC=C(C(=CC)c1ccc(O)cc1)c1ccc(O)cc1", "Experimental System": "MKL-2", "Class Label": "f"}
{"Compound": "NS(=O)(=O)c1ccc(Nc2nc(OCC3CCCCC3)c3[nH]cnc3n2)cc1", "Experimental System": "MKL-2", "Class Label": "f"}
{"Compound": "C[C@H]1[C@H](O)O[C@@H]2O[C@@]3(C)CC[C@@H]4[C@H](C)CC[C@@H]1[C@@]24OO3", "Experimental System": "MKL-2", "Class Label": "t"}
{"Compound": "COc1nc(C)cnc1NS(=O)(=O)c1cccnc1-c1ccc(-c2nnco2)cc1", "Experimental System": "MKL-2", "Class Label": "f"}
{"Compound": "C#C[C@]1(O)CC[C@H]2[C@H]3CCc4cc(OC)ccc4[C@H]3CC[C@@]21C", "Experimental System": "MKL-2", "Class Label": "f"}
{"Compound": "CCc1cc(-c2n[nH]c(C)c2-c2ccc3c(c2)OCCO3)c(O)cc1O", "Experimental System": "MKL-2", "Class Label": "f"}
{"Compound": "Fc1ccc(C(c2ccc(F)cc2)N2CCN(CC=Cc3ccccc3)CC2)cc1", "Experimental System": "MKL-2", "Class Label": "f"}
{"Compound": "COc1cc2c(cc1OC)CC(=O)N(CCCN(C)C[C@H]1Cc3cc(OC)c(OC)cc31)CC2", "Experimental System": "MKL-2", "Class Label": "f"}
{"Compound": "Nc1ccc(-c2ccc3ncc4ccc(=O)n(-c5cccc(C(F)(F)F)c5)c4c3c2)cn1", "Experimental System": "MKL-2", "Class Label": "t"}
{"Compound": "CC[C@H](C)C(=O)O[C@H]1C[C@H](O)C=C2C=C[C@H](C)[C@H](CC[C@@H](O)C[C@@H](O)CC(=O)O)[C@H]21", "Experimental System": "MKL-2", "Class Label": "f"}

Query: Field: outcome | Entry: Cc1cnc(Nc2cccc(CN3CCOCC3)c2)nc1Nc1cccc(S(=O)(=O)NC(C)(C)C)c1
Response: f

Query: Then what about the compound O=C1CCCC(=O)C1C(=O)c1ccc(C(F)(F)F)cc1[N+](=O)[O-] ?
Response: f

Query: Then what about the compound C=CCc1cccc(C=NNC(=O)CN2CCN(Cc3ccccc3)CC2)c1O ?
Response: t
